Tested on: RXF 393 renal
Experiment Notes: NCI tumour cell line growth inhibition, 48 h
TGI values for the molecules below.

Example entries and their recorded answers appear below.
Cc1c(C(=O)O)c2cc3ccccc3cc2c(=O)n1C    > 10 µM
CN(C)CC(CO)(CN(C)C)CN(C)C    > 100 µM
O=C(/C=C(\Nc1ccccc1O)c1ccccc1)C(=O)NC12CC3CC(CC(C3)C1)C2    > 10 µM
CC(=O)Nc1cc2c(cc1O)CC[C@@H]1[C@@H]2CC[C@]2(C)[C@@H](O)CC[C@@H]12    > 100 µM
Cc1nc2ccccc2c(=O)n1NC(=O)c1ccccc1O    > 100 µM
C=C1C(=O)O[C@@H]2C[C@@H]1CC[C@@]1(C)O[C@@H]1CC[C@@]1(C)O[C@@H]1CC[C@@]2(C)O    > 100 µM
O=c1c2ccccc2c(=O)c2c1cc(Cl)c1[nH]c3c([nH]c12)c(Cl)cc1c(=O)c2ccccc2c(=O)c13    > 100 µM
C=C(C)[C@@]1(O)CCC[C@H]1NC(=O)OC(C)(C)C    > 100 µM
O=C(Nc1ccc(Cl)cc1)/C(Cc1cccc[n+]1[O-])=N\Nc1ccc([N+](=O)[O-])cc1[N+](=O)[O-]    > 100 µM
CC1(C)CN=C(Nc2ccc(Cl)cc2)S1    > 100 µM

For record "COc1ccc2c(=O)c3cc([N+](=O)[O-])ccc3n(C)c2c1" the listed TGI is > 100 µM

For record COc1ccc2c(c1)nc1n2C(c2c(F)cccc2Cl)SC1 (configuration not stated) the listed TGI is > 22 µM
